FYI, the data here is from paper PMC9655717.

# assay comment: MTT cytotoxicity assay
# condition set: human, Lu-1 lung adenocarcinoma cells (ATCC HTB-57)
Exercise: for every item that follows, state its recorded IC50 at 72 h.
Answer with a number only, understood to be in µg/mL.

I would be grateful if you could share the reported IC50 at 72 h for C#CCOC(=O)C1(C)CCCC2(C)C1CCC13C=C(C(C)C)C(CC12)C1=C3C(=O)C=CC1=O (stereo not shown) .
10.2

I would be grateful if you could share the reported IC50 at 72 h for CC(C)C1=CC23CCC4C(C)(C(=O)O)CCCC4(C)C2CC1c1c(OCCC#N)ccc(OCCC#N)c13 (stereo not shown) .
69.8

I would be grateful if you could share the reported IC50 at 72 h for C#CCOC(=O)C1(C)CCCC2(C)C1CCC13C=C(C(C)C)C(CC12)c1c(O)cc2c(C(=O)OC)c(C)[nH]c2c13 (stereo not shown) .
16

I would be grateful if you could share the reported IC50 at 72 h for Cc1[nH]c2c3c(c(O)cc2c1CO)[C@H]1C[C@@H]2[C@@]4(C)CCC[C@@](C)(CO)[C@@H]4CC[C@@]32C=C1C(C)C .
58.1
